# Subject Of Test: IDH2^R172K (Homo sapiens, UniProt P48735, R172K)
# Sequence (P48735 40-452 R172K): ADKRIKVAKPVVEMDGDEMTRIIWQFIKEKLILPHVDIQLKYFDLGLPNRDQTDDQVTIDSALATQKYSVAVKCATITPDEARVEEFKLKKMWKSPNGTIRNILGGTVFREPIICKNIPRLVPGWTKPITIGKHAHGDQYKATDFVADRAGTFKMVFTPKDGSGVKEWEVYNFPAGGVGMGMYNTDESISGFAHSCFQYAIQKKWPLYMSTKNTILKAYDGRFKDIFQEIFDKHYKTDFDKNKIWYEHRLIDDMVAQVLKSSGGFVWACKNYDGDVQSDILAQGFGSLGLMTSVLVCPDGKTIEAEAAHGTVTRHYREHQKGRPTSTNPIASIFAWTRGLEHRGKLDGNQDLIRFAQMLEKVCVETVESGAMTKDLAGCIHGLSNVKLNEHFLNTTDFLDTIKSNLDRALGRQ
# Test Name: NADPH depletion assay, IDH2 R172K
Property Name: IC50 (µM)

[[record]]
molecule = "C[C@H](Nc1ncc2ccc(=O)n(CC(C)(C)C)c2n1)c1ccc(-c2cnn(C)c2)cc1 [cpd 130]"
property_name = "IC50"
test_result = 5.03

[[record]]
molecule = "COC(=O)C(C)(C)Cn1c(=O)ccc2cnc(N[C@@H](C)c3ccc4ccccc4c3)nc21 [cpd 37]"
property_name = "IC50"
test_result = 4.85

[[record]]
molecule = "C[C@H](Nc1ncc2ccc(=O)n(CC(C)(C)C(F)(F)F)c2n1)c1ccc(CN2CCC(F)(F)CC2)cc1 [cpd 116]"
property_name = "IC50"
test_result = 5.02

[[record]]
molecule = "CC(C)Cn1c(=O)ccc2cnc(N[C@@H](C)c3ccc(CN4CCC(F)(F)CC4)cc3)nc21 [cpd 104]"
property_name = "IC50"
test_result = 5.13


###

# Tested on: U87MG_IDH1R132H
# Test Name: Cellular 2-HG production assay, U87-MG-IDH1 R132H
# Type: cell-based
# Measurement Context: inhibition of 2HG production, 72 hr incubation, LC-MS/MS
Property Name: IC50 (nM)

Sample answers from the record:
[[record]]
compound = "C[C@H](Nc1ncc2ccc(=O)n(CC(C)(C)C)c2n1)c1ccc(CN2CCOCC2)cc1 [cpd 110]"
property_name = "IC50"
test_result = 2610

[[record]]
compound = "C[C@H](Nc1ncc2ccc(=O)n(CC(C)(C)C)c2n1)c1cc2cc(Cl)ccc2[nH]c1=O [cpd 50]"
property_name = "IC50"
test_result = 2530

[[record]]
compound = "C=CC(=O)N1CCN(C(CC2CC2)c2ccc([C@H](C)Nc3ncc4ccc(=O)n(CC)c4n3)cc2)CC1 (stereo partly drawn) [cpd 219]"
property_name = "IC50"
test_result = 0.4

[[record]]
compound = "C[C@H](Nc1ncc2ccc(=O)n([C@@H](C)C3CCCCC3)c2n1)c1ccc(CN2CCCC(F)(F)C2)cc1 [cpd 66]"
property_name = "IC50"
test_result = 691


P: C=CC(=O)N1CCN(c2ccc([C@H](C)Nc3ncc4ccc(=O)n([C@@H](C)C(C)C)c4n3)cc2)CC1 [cpd 175]
Q: C[C@H](Nc1ncc2ccc(=O)n([C@@H](C)C(C)(C)C)c2n1)c1ccc(CN2CCCC(F)(F)C2)cc1 [cpd 69]
Inquiry: Select the item with the higher value of IC50 from the options P and Q listed. Write the label of whichever entry you select.
Reply text: Q

P: CC[C@H](C)n1c(=O)ccc2cnc(N[C@@H](C)c3ccc(CN4CCCC(F)(F)C4)cc3)nc21 [cpd 62]
Q: C=CC(=O)N1CCN([C@@H](CC2CC2)c2ccc([C@H](C)Nc3ncc4ccc(=O)n(C(C)C)c4n3)cc2)CC1 [cpd 230]
Inquiry: // returns P or Q , whichever has the lower IC50 Write the label of whichever entry you select.
Reply text: Q
(Q: 0.4 nM, P: 462 nM)

###

# Subject Of Test: IDH1^R132C (Homo sapiens, UniProt O75874, R132C)
# Sequence (O75874 whole entry R132C): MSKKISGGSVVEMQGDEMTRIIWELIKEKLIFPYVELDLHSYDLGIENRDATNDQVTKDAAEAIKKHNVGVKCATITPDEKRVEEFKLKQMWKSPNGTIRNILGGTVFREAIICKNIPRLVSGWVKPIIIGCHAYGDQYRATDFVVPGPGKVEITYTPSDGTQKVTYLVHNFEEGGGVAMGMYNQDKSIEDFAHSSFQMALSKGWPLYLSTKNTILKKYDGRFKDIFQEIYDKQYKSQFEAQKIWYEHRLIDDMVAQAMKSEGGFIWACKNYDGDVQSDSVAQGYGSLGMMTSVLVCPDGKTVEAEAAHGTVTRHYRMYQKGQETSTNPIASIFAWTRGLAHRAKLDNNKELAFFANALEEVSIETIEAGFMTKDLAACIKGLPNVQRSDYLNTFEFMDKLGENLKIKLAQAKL
# Test Name: NADPH depletion assay, IDH1 R132C
Property Name: IC50 (µM)

Sample answers from the record:
[[record]]
compound = "C[C@H](Nc1ncc2ccc(=O)n(CC(C)(C)CO)c2n1)c1ccc2ccccc2c1 [cpd 38]"
property_name = "IC50"
test_result = 0.067

[[record]]
compound = "C=CC(=O)N1CCN(Cc2ccc([C@H](C)Nc3ncc4ccc(=O)n(CC)c4n3)cc2)C[C@H]1C [cpd 208]"
property_name = "IC50"
test_result = 0.213

[[record]]
compound = "CCn1c(=O)ccc2cnc(N[C@@H](C)c3ccc(CN4CCN(C(=O)OC(C)(C)C)CC4)cc3)nc21 [cpd 185]"
property_name = "IC50"
test_result = 1.27


P: CCCn1c(=O)ccc2cnc(N[C@@H](C)c3ccc(CN4CCN(C(C)=O)CC4)cc3)nc21 [cpd 103]
Q: C[C@H](Nc1ncc2ccc(=O)n(CC(C)(C)C(=O)O)c2n1)c1ccc2ccccc2c1 [cpd 121]
R: C[C@H](Nc1ncc2ccc(=O)n(Cc3c(F)cccc3F)c2n1)c1ccc(Cl)cc1 [cpd 31]
S: C=CC(=O)N1CCN(C(=O)c2ccc([C@H](C)Nc3ncc4ccc(=O)n(CC)c4n3)cc2)CC1 [cpd 190]
T: C[C@H](Nc1ncc2ccc(=O)n(CC(C)(C)C)c2n1)c1ccc(CN2CCOCC2)cc1F [cpd 153]
Inquiry: Put these in order: smallest IC50 first, largest last. Ranked list of labels, please, in the requested order.
Reply text: T, R, P, Q, S
(T: 0.041 µM, R: 0.147 µM, P: 0.634 µM, Q: 1.63 µM, S: 3.6 µM)

A: C[C@H](Nc1ncc2ccc(=O)n(CC(C)(C)C)c2n1)c1ccc(C(=O)NC2CCCCC2)cc1 [cpd 81]
B: C[C@H](Nc1ncc2ccc(=O)n(CC(C)(C)C)c2n1)c1nc(-c2ccc(Cl)cc2)no1 [cpd 52]
Inquiry: // returns A or B , whichever has the lower IC50 Write the label of whichever entry you select.
Reply text: A

P: CC[C@H](Nc1ncc2ccc(=O)n(CC(C)(C)C)c2n1)c1ccccc1 [cpd 70]
Q: CC(C)[C@H](C)n1c(=O)ccc2cnc(N[C@@H](C)c3ccc(-c4ccnc(F)c4)cn3)nc21 [cpd 197]
R: C=CC(=O)N1CCN([C@@H](CC2CC2)c2ccc([C@H](C)Nc3ncc4ccc(=O)n(C(C)C)c4n3)cc2)CC1 [cpd 230]
Inquiry: Please give the order of these compounds when sorted by IC50, largest value leading. Ranked list of labels, please, in the requested order.
Reply text: Q, P, R

A: C[C@H](Nc1ncc2ccc(=O)n(CC(C)(C)C)c2n1)c1ccc(C(=O)NC2CCCC2)cc1 [cpd 80]
B: CC(C)[C@H](C)n1c(=O)ccc2cnc(N[C@@H](C)c3ccc(CN4CCC(F)(F)CC4)c(F)c3)nc21 [cpd 67]
Inquiry: // returns A or B , whichever has the lower IC50 Write the label of whichever entry you select.
Reply text: B

I: C[C@H](Nc1ncc2ccc(=O)n(CC(C)(C)C)c2n1)c1ccc(C(=O)NC2CCC(F)(F)CC2)c(F)c1 [cpd 89]
II: C[C@H](Nc1ncc2ccc(=O)n(Cc3c(F)cccc3F)c2n1)c1ccc(CO)cc1 [cpd 92]
III: Cc1nc(N[C@@H](C)c2ccc(Cl)cc2)nc2c1ccc(=O)n2CC(C)C [cpd 32]
IV: CCn1c(=O)ccc2cnc(N[C@@H](C)C3CCCCC3)nc21 [cpd 12]
Inquiry: Please give the order of these compounds when sorted by IC50, largest value leading. Ranked list of labels, please, in the requested order.
Reply text: IV, III, II, I
(IV: 1.78 µM, III: 1.15 µM, II: 0.715 µM, I: 0.075 µM)

1: CCC(=O)N1CCN(C(CC)c2ccc([C@H](C)Nc3ncc4ccc(=O)n(C(C)C)c4n3)cc2)CC1 (stereo partly shown) [cpd 240]
2: CC(Nc1ncc2ccc(=O)n(CC(C)(C)C)c2n1)C12CC3CC(CC(C3)C1)C2 (stereo not shown) [cpd 44]
Inquiry: // returns 1 or 2 , whichever has the lower IC50 Write the label of whichever entry you select.
Reply text: 1

1: C=CC(=O)N1CCN(c2ccc([C@H](C)Nc3ncc4ccc(=O)n([C@@H](C)C(C)C)c4n3)cc2)CC1 [cpd 175]
2: C[C@H](Nc1ncc2ccc(=O)n(Cc3ccc(F)c(F)c3)c2n1)c1ccc(Cl)cc1 [cpd 23]
Inquiry: Select the item with the higher value of IC50 from the options 1 and 2 listed. Write the label of whichever entry you select.
Reply text: 2

1: C[C@H](Nc1ncc2ccc(=O)n(CC(C)(C)C)c2n1)c1ccc(-c2ccccc2C#N)cc1 [cpd 134]
2: C[C@H](Nc1ncc2cc(F)c(=O)n(CC(C)(C)C)c2n1)c1ccccc1 [cpd 47]
Inquiry: Select the item with the higher value of IC50 from the options 1 and 2 listed. Write the label of whichever entry you select.
Reply text: 2
(2: 0.597 µM, 1: 0.061 µM)
